Data export: MIC values recorded with MRSA.
Output spec: scalar in µM, unitless text.

The following compounds have reported results that may help.
Input line: Lab note: need MIC for CC1(C)S[C@@H]2[C@H](NC(=O)[C@H](N)c3ccc(O)cc3)C(=O)N2[C@H]1C(=O)O [Amoxicillin, reference compound] on MRSA, anyone have it?
Output line: 16.1

Input line: MIC of CC(C)c1sc(NC(=O)c2cc(NC=O)cn2C)nc1C(=O)Nc1cc(C(=O)NCCCN(C)C)n(C)c1 [Example 7] on MRSA?
Output line: 19.1

Input line: Lab note: need MIC with MRSA for entry CC(C)c1sc(NC(=O)c2cc(NC(=O)c3ccc4c(c3)CCc3cc(C(=O)Nc5cc(C(=O)Nc6nc(C(=O)NCCCN(C)C)c(C(C)C)s6)n(C)c5)ccc3-4)cn2C)nc1C(=O)NCCCN(C)C [Example 28] , please look it up.
Output line: 10

Continuing:
Input line: Write down the reported MIC of CC(C)c1sc(NC(=O)c2cc(NC(=O)c3cc(NC=O)cn3C)cn2C)nc1C(=O)NCCCN(C)C [Example 3] , test system: MRSA.
Output line: 38.1

Just for reference, patent US7700765B2 is where these values come from.
